Test system: Hs-578T
METHOD_NOTES: NCI tumour cell line growth inhibition, 48 h
Activity calls are given as the source filed them. Cut-off read from the data, not from the text of the source: active = GI50 up to about 1.1 µM and inactive = higher.
Entries and their measured GI50 follow.

[
  {
    "COMPOUND": "O=[N+]([O-])c1cccnc1NCC1(CO)CC(Cc2ccccc2)C1 (stereo not given)",
    "GI50": "> 100 µM (inactive)"
  },
  {
    "COMPOUND": "CN(C)C(c1ccccc1)C1COC2Cc3ccccc3C1O2 (stereo not given)",
    "GI50": "92.3 µM (inactive)"
  },
  {
    "COMPOUND": "COC(=O)[C@@H](NS(=O)(=O)CC12CCC(CC1)C2(C)C)C(C)(C)C",
    "GI50": "> 100 µM (inactive)"
  },
  {
    "COMPOUND": "Cc1ccc(S(=O)(=O)NC(=O)NC(CCCCNC(=N)N)C(=O)O)cc1 (stereo not given)",
    "GI50": "> 100 µM (inactive)"
  },
  {
    "COMPOUND": "C=C(NC(=O)C(=C)NC(=O)c1ccc2c(n1)-c1coc(n1)C(=C)NC(=O)C(=C)NC(=O)c1nc(oc1C)C(=C)NC(=O)C(C(C)(C)O)NC(=O)C(=C)NC(=O)c1coc(n1)/C(=C/C)NC(=O)[C@H]([C@@H](C)O)NC(=O)c1csc-2n1)C(N)=O (stereo not given in full)",
    "GI50": "> 87.5 µM (inactive)"
  }
]

---

Tested on: KM12
METHOD_NOTES: NCI tumour cell line growth inhibition, 48 h
Activity calls are given as the source filed them. Rule as the data show it: active = GI50 up to about 1.1 µM and inactive = higher. Where a SMILES comes first, the peptide text is derived from it. The star is where a group is joined. Boc = CC(C)(C)OC(=O)*
Classes used: label 1 = active, label 0 = inactive

[
  {
    "MOLECULE": "CCCCCCCCCCCC[C@@H](O)[C@H]1CC[C@H]([C@H](O)CC[C@H](O)[C@@H]2CC[C@@H](CCCCCCCC3=C[C@H](C)OC3=O)O2)O1",
    "TARGET_UNDER_TEST": "KM12",
    "ASSIGNED_CLASS": "label 0"
  },
  {
    "MOLECULE": "CN(C)C(c1ccccc1)C1COC2Cc3ccccc3C1O2 (stereo not drawn)",
    "TARGET_UNDER_TEST": "KM12",
    "ASSIGNED_CLASS": "label 0"
  },
  {
    "MOLECULE": "O=S(=O)([N-]c1nc2ccccc2nc1-[n+]1ccccc1)c1ccccc1",
    "TARGET_UNDER_TEST": "KM12",
    "ASSIGNED_CLASS": "label 0"
  },
  {
    "MOLECULE": "CC(C)Cc1ccc(C(C)/C=C2\\CCC(CN(C)C)C2=O)cc1 (stereo not drawn)",
    "TARGET_UNDER_TEST": "KM12",
    "ASSIGNED_CLASS": "label 0"
  },
  {
    "MOLECULE": "O=C1/C(=C/c2ccc(Oc3ccccc3)cc2)N=C(c2ccccc2)N1c1ccc(S(=O)(=O)Nc2nccs2)cc1",
    "TARGET_UNDER_TEST": "KM12",
    "ASSIGNED_CLASS": "label 0"
  },
  {
    "MOLECULE": "COC(=O)[C@H](Cc1ccc(O)cc1)NC(=O)[C@H](Cc1ccc(O)cc1)NC(=O)OC(C)(C)C (Boc-Tyr-Tyr-OMe)",
    "TARGET_UNDER_TEST": "KM12",
    "ASSIGNED_CLASS": "label 0"
  },
  {
    "MOLECULE": "C=CC[N+]12CN3CN(CN(C3)C1)C2",
    "TARGET_UNDER_TEST": "KM12",
    "ASSIGNED_CLASS": "label 0"
  },
  {
    "MOLECULE": "COc1cc([C@@H]2c3cc4c(cc3[C@@H](OC(=O)c3ccccc3)C3COC(=O)[C@@H]32)OCO4)cc(OC)c1O (stereo partly drawn)",
    "TARGET_UNDER_TEST": "KM12",
    "ASSIGNED_CLASS": "label 1"
  },
  {
    "MOLECULE": "O=c1[nH]nc(-c2ccc([N+](=O)[O-])cc2)n1/N=C/c1ccc([N+](=O)[O-])cc1",
    "TARGET_UNDER_TEST": "KM12",
    "ASSIGNED_CLASS": "label 0"
  },
  {
    "MOLECULE": "C=C[C@H]1CN2CCc3c([nH]c4c([C@@H]5CCCN5C)c(O)ccc34)[C@@H]2C[C@@H]1C[C@H]1c2[nH]c3ccccc3c2CCN1C",
    "TARGET_UNDER_TEST": "KM12",
    "ASSIGNED_CLASS": "label 0"
  },
  {
    "MOLECULE": "Oc1cc(O)c2c(c1)O[C@H](c1ccc(O)c(O)c1)[C@@H](O)C2",
    "TARGET_UNDER_TEST": "KM12",
    "ASSIGNED_CLASS": "label 0"
  },
  {
    "MOLECULE": "CCCCC[C@H]1CC=CC(=O)O1",
    "TARGET_UNDER_TEST": "KM12",
    "ASSIGNED_CLASS": "label 0"
  },
  {
    "MOLECULE": "CC[C@H]1C=CCC[C@@]2(C[C@@H]3CC[C@@H]4[C@H](C(=O)OCCCCCCCCCCCCCCCC(=O)N(CCCN)CCCCN)[C@]5(CCC[C@@H](C)O5)NC(=[N+]34)N2)O1",
    "TARGET_UNDER_TEST": "KM12",
    "ASSIGNED_CLASS": "label 1"
  },
  {
    "MOLECULE": "O=C1[C@@H]2C[C@@H](O)CN2C(=O)c2ccccc2N1CCCO",
    "TARGET_UNDER_TEST": "KM12",
    "ASSIGNED_CLASS": "label 0"
  },
  {
    "MOLECULE": "CCC1=C(C(C)=O)[C@@H]2CCCCC(C(=O)OC)[C@@H]2C1=O (stereo partly drawn)",
    "TARGET_UNDER_TEST": "KM12",
    "ASSIGNED_CLASS": "label 0"
  },
  {
    "MOLECULE": "S=P1(N2CCCCC2)Oc2ccc3ccccc3c2-c2c(ccc3ccccc23)O1",
    "TARGET_UNDER_TEST": "KM12",
    "ASSIGNED_CLASS": "label 0"
  },
  {
    "MOLECULE": "O=C1Cc2ccccc2N1/N=C\\c1ccc(O)cc1",
    "TARGET_UNDER_TEST": "KM12",
    "ASSIGNED_CLASS": "label 0"
  },
  {
    "MOLECULE": "O=[N+]([O-])c1ccc2[nH]nc(OCc3ccccn3)c2c1",
    "TARGET_UNDER_TEST": "KM12",
    "ASSIGNED_CLASS": "label 0"
  },
  {
    "MOLECULE": "Cc1cc(OP2(=O)NCc3ccncc3O2)ccc1Cl (stereo not drawn)",
    "TARGET_UNDER_TEST": "KM12",
    "ASSIGNED_CLASS": "label 0"
  },
  {
    "MOLECULE": "CCOc1ccc(-c2oc(/C=N/NS(=O)(=O)c3ccc(C)cc3)c([N+](=O)[O-])c2-c2ccc(OCC)cc2)cc1",
    "TARGET_UNDER_TEST": "KM12",
    "ASSIGNED_CLASS": "label 0"
  },
  {
    "MOLECULE": "CC(=O)/C=C1\\CC(=O)N(C)c2ccccc2N1",
    "TARGET_UNDER_TEST": "KM12",
    "ASSIGNED_CLASS": "label 0"
  },
  {
    "MOLECULE": "N#CC1(c2nc3ccccc3o2)C(=O)C(=O)N(C2C3CC4CC(C3)CC2C4)C(=O)C1=O (stereo not drawn)",
    "TARGET_UNDER_TEST": "KM12",
    "ASSIGNED_CLASS": "label 0"
  },
  {
    "MOLECULE": "O=S(=O)(O)c1ccc(O)c(/N=N/c2c(O)ccc3ccccc23)c1",
    "TARGET_UNDER_TEST": "KM12",
    "ASSIGNED_CLASS": "label 0"
  },
  {
    "MOLECULE": "Cc1cc(-c2nc3ccccc3s2)ccc1NC(=O)[C@@H](N)CCCCN",
    "TARGET_UNDER_TEST": "KM12",
    "ASSIGNED_CLASS": "label 0"
  },
  {
    "MOLECULE": "C=CC(=O)C#CC#CC/C=C\\CCCCCCC",
    "TARGET_UNDER_TEST": "KM12",
    "ASSIGNED_CLASS": "label 0"
  },
  {
    "MOLECULE": "COc1ccc(/C=N/NC(=O)CSc2nc(-c3ccccc3)c(-c3ccccc3)[nH]2)cc1OC",
    "TARGET_UNDER_TEST": "KM12",
    "ASSIGNED_CLASS": "label 0"
  },
  {
    "MOLECULE": "COC(=O)CSc1nnc(-c2ccccc2)[nH]1",
    "TARGET_UNDER_TEST": "KM12",
    "ASSIGNED_CLASS": "label 0"
  },
  {
    "MOLECULE": "C[C@@]1(Cc2ccccc2)C(=O)N2[C@@H](CO)C(c3ccccc3)O[C@]2(C)c2ccccc21 (stereo partly drawn)",
    "TARGET_UNDER_TEST": "KM12",
    "ASSIGNED_CLASS": "label 0"
  },
  {
    "MOLECULE": "COc1ccc2c(c1)OCCC1=C2SCC2(C)CCN=C12 (stereo not drawn)",
    "TARGET_UNDER_TEST": "KM12",
    "ASSIGNED_CLASS": "label 0"
  },
  {
    "MOLECULE": "CC1=NC(=O)C(C)(c2ccccc2)N1CCc1ccccc1 (stereo not drawn)",
    "TARGET_UNDER_TEST": "KM12",
    "ASSIGNED_CLASS": "label 0"
  },
  {
    "MOLECULE": "CC(C)C(=O)/C=C/c1ccc(Br)cc1",
    "TARGET_UNDER_TEST": "KM12",
    "ASSIGNED_CLASS": "label 0"
  },
  {
    "MOLECULE": "Cc1c(/C=N/N=C/c2[nH]c(C(=O)OC(C)(C)C)c(C)c2C)[nH]c(C(=O)OC(C)(C)C)c1C",
    "TARGET_UNDER_TEST": "KM12",
    "ASSIGNED_CLASS": "label 0"
  },
  {
    "MOLECULE": "CC(C)(C)OC(=O)NC(Cc1ccc(OCc2ccccc2)cc1)C(=O)NC(COCc1ccccc1)C(=O)Oc1c(Cl)c(Cl)c(Cl)c(Cl)c1Cl (stereo not drawn)",
    "TARGET_UNDER_TEST": "KM12",
    "ASSIGNED_CLASS": "label 0"
  }
]
